src = patent US20220073643A1

tgt: human Claudin18.2 (human)
measurement.protocol: cell-based or functional assay
I'd be grateful if you could share measured CDC % Relative activity for these entries.
Only the number, expressed in %, is required.

Name the recorded CDC % Relative activity of the binder listed here: 286C7F11 (antibody, V domains shown) VH: QVQLKESGPGLVAPSQSLSITCTVSGFSLTDYGVSWIRQPPGKGLEWLGVIWNRGNTYYNSALKSRLSISKDNSKSQVFLRMNSLQTDDTAMYYCAKHDFLRFLDYWGQGTTLTVSS VL: DVVMTQSPSSLTVTAGEKVTMSCKSSQSLLNSGNQKNYLTWYQQKPGQPPKILIYWASTRESGVPDRFTGSGSGTDFSLTITSVQAEDLAVYYCLNDYYYPLTFGAGTKLELK
107

# return recorded CDC % Relative activity for entry 410H6H3 (antibody, V domains shown) VH: DVLLVESGGGLVQPGGSRKLSCAASGFTFSSSGMHWVRQAPEKGLEWVAYISSGSNTIYYADTLKGRFTISRDNPKNTLFLQMTSLRSEDTAMYYCARIYYGNSFVYWGQGTLVTVSA VL: DIVMTQSPSSLTVTAGEKVIMSCKSSQSLLNSGNQKNYLTWYQQKPGQPPKMLIYWASTRESGVPDRFRGSGSGTDFTLTISSVQAEDLAVYYCQNNYYYPLTFGTGTKLALK
755

Fill in CDC % Relative activity for record 393C2C5 (antibody, V domains shown) VH: DVQLVESGGGLVQPGGSRKLSCAASGFTFSSFGMHWVRQAPEKGLEWVAYISSGSSPIYYADTVKGRFTISRDNPKNTLFLQMTSLRSEDTAMYFCATFYYGNSFAYWGQGTLVTVSA VL: DIVMTQSPSSLTVTAGEKVTMSCKSSQTLLNSGNQKNYLTWYQQKSGQPPKLLIYWASTRESGVPDRFTGSGSGTDFTLTISSVQAEDLAVYYCQNAYSYPVTFGSGTKVELK
285

Read off the recorded CDC % Relative activity for 425B3D5 (antibody, V domains shown) VH: DVQLVESGGGLVQPGGSRKLSCAASGFTFSGFGMHWIRQTPEKGLEWVAYISSGSRPIYYADTVQGRFTISRDNPKNTLFLQMTSLRSEDTAMYFCARFYYGNSFDHWGQGTLVTVSS VL: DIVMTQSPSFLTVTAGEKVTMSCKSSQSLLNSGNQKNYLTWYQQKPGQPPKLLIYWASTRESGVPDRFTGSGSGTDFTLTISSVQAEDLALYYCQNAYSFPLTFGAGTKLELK
63

Supply recorded CDC % Relative activity for 262C7C10 (antibody, V domains shown) VH: QAYLQQSGAELVRSGASVKMSCKASGYTFTNYNIHWVKQTPGQGLEWIGYIYPGNGGNYYNQKFKGKATLTADTSSITAYMQISSLTSEDSAVYFCARDYYGNSFAYWGQGTLVTVSA VL: DIVMTQSPSSLTVTAGEKVTMNCKSSQSLLNSGNQKNYLTWYQQKPGQPPKLLIYWASTRESGVPDRFTGSGSGTDFTLTISSVQAEDLAIYYCQNDYYYPLTFGAGTKLELK here.
520
